Ref: ChEMBL document CHEMBL1142836

# experimental-system: Carbonic anhydrase 9 (Homo sapiens)
pKi: −log10 of the molar value.
Parameter threshold = 7. Response is true when pKi meets or exceeds it, else false.

{"structure-smiles": "NS(=O)(=O)c1nnc(NC(=O)CN2CCOCC2)s1", "qualitative-label": "true"}
{"structure-smiles": "CN1CCN(CC(=O)Nc2nnc(S(N)(=O)=O)s2)CC1", "qualitative-label": "true"}
{"structure-smiles": "NS(=O)(=O)c1ccc(NC(=O)CCCN2CCOCC2)cc1", "qualitative-label": "false"}
{"structure-smiles": "CC1CCN(CC(=O)Nc2nnc(S(N)(=O)=O)s2)CC1", "qualitative-label": "true"}
{"structure-smiles": "NS(=O)(=O)c1ccc(NC(=O)CCN2CCC(Cc3ccccc3)CC2)cc1", "qualitative-label": "false"}
{"structure-smiles": "CN1CCN(CCC(=O)Nc2ccc(S(N)(=O)=O)cc2)CC1", "qualitative-label": "false"}
{"structure-smiles": "CN1CCN(CCC(=O)Nc2nnc(S(N)(=O)=O)s2)CC1", "qualitative-label": "true"}
